System: 885512-296-R-J2-PDC complex spheroid viability
Experiment: Anticancer human tumor 885512-296-R-J2-PDC patient-derived breast carcinoma cell line growth inhibition [GQUAD]
Conditions: second compound 1 µM; first compound 0.0316 µM; stronger effect = lower value
Recorded measurements of viability, T/C, one per entry
// return numeric value only (unit: %, not printed)

| COMPOUND | EXPERIMENTAL SYSTEM | ENDPOINT | NUMERIC RESULT |
| --- | --- | --- | --- |
| Cn1ncnc1[C@H]1c2n[nH]c(=O)c3cc(F)cc(c23)N[C@@H]1c1ccc(F)cc1 + CN(C)c1ccc(Nc2c3ccc(NC(=O)CCN4CCCC4)cc3nc3cc(NC(=O)CCN4CCCC4)ccc23)cc1 | 885512-296-R-J2-PDC complex spheroid viability | viability, T/C | 81.4 |

Now for the compound whose viability, T/C we want.
Query: What does the data say about its viability, T/C? Entry: CC(=O)O[C@H]1C(=O)[C@@]2(C)[C@H]([C@H](OC(=O)c3ccccc3)[C@]3(O)C[C@H](OC(=O)[C@H](O)[C@@H](NC(=O)c4ccccc4)c4ccccc4)C(C)=C1C3(C)C)[C@]1(OC(C)=O)CO[C@@H]1C[C@@H]2O + CN(C)c1ccc(Nc2c3ccc(NC(=O)CCN4CCCC4)cc3nc3cc(NC(=O)CCN4CCCC4)ccc23)cc1
Result: 10.4

----------
System: 885512-296-R-J2-PDC complex spheroid viability
Assay: Anticancer human tumor 885512-296-R-J2-PDC cell line growth inhibition [GQUAD];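 note: spheroids exposed to the compounds for one week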
Details: curve of first compound; second compound 1 µM
As shown below, each of these molecules has a reported IC50 value.

See these solved cases before continuing.
| MOLECULE | IC50 |
| --- | --- |
| O=C(c1cc(Cc2n[nH]c(=O)c3ccccc23)ccc1F)N1CCN(C(=O)C2CC2)CC1 + Cc1[nH]c2ccc(F)cc2c1-c1nc2c3cccnc3c3ncccc3c2[nH]1 | 5.09 µM |
| Cc1cccc(N(C)C(=O)C2C(O)CCN2c2nc(C)cc(C(F)(F)F)c2C#N)c1 (stereo not given) + CN(C)c1ccc(Nc2c3ccc(NC(=O)CCN4CCCC4)cc3nc3cc(NC(=O)CCN4CCCC4)ccc23)cc1 | > 10 µM |
| CC(C)n1c(=O)n(C)c2cnc3cc(F)c(-c4ccc(OCCCN5CCCCC5)nc4)cc3c21 + Cc1[nH]c2ccc(F)cc2c1-c1nc2c3cccnc3c3ncccc3c2[nH]1 | 4.45 µM |

Query: Could you share what IC50 was measured for COc1ncnc(C2CC2)c1-c1ncc2cnn(Cc3ccc(-c4nc(C(F)(F)F)cn4C(C)C)cc3)c2n1 + Cc1cnc(CNC(=O)c2c(=O)c3ccc(N4CCCN(C)CC4)nc3n3c2sc2ccccc23)cn1 , tested on 885512-296-R-J2-PDC complex spheroid viability?
Result: < 0.0316 µM

Query: Query for 885512-296-R-J2-PDC complex spheroid viability: what IC50 does the record show for CC(C)n1c(=O)n(C)c2cnc3cc(F)c(-c4ccc(OCCCN5CCCCC5)nc4)cc3c21 + CN(C)c1ccc(Nc2c3ccc(NC(=O)CCN4CCCC4)cc3nc3cc(NC(=O)CCN4CCCC4)ccc23)cc1 ?
Result: > 10 µM

----------
Test system: 885512-296-R-J2-PDC complex spheroid viability
Assay: Anticancer human tumor 885512-296-R-J2-PDC cell line growth inhibition [GQUAD];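 note: spheroids exposed to the compounds for one week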;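 for viability, T/C: percent of tumor spheroid viability relative to DMSO vehicle control wells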
Conditions: second compound 3.16 µM; first compound 10 µM; stronger effect = lower value
Text: DNA G-quadruplex Stabilizer Agents in Combinations in Complex Spheroids A high-throughput screen of multi-cell type tumor spheroids was designed to identify active combinations of DNA G-quadruplex stabilizer agents and targeted small molecules. […] Compounds. […] If the clinical Cmax for an agent had not been determined, the highest concentration tested was 10 microM. […]
Exam item: assign criterion met to entries whose viability, T/C is below 0.4% and criterion not met to entries at or above 0.4%. Note that a value of exactly 0.4% receives criterion not met.

Look over these answered cases.
| COMPOUND | CLASS |
| --- | --- |
| CC(C)(O)C1CCC(Nc2ccc3ncc(-c4cccc(C(F)(F)F)c4)n3n2)CC1 (stereo not given) + CN(C)c1ccc(Nc2c3ccc(NC(=O)CCN4CCCC4)cc3nc3cc(NC(=O)CCN4CCCC4)ccc23)cc1 | criterion not met |
| CC(C)n1c(=O)n(C)c2cnc3cc(F)c(-c4ccc(OCCCN5CCCCC5)nc4)cc3c21 + Cc1cnc(CNC(=O)c2c(=O)c3ccc(N4CCCN(C)CC4)nc3n3c2sc2ccccc23)cn1 | criterion not met |
| CC(C)(O)C1CCC(Nc2ccc3ncc(-c4cccc(C(F)(F)F)c4)n3n2)CC1 (stereo not given) + Cc1cnc(CNC(=O)c2c(=O)c3ccc(N4CCCN(C)CC4)nc3n3c2sc2ccccc23)cn1 | criterion met |

Query: Dear reviewer, please state whether COc1ncnc(C2CC2)c1-c1ncc2cnn(Cc3ccc(-c4nc(C(F)(F)F)cn4C(C)C)cc3)c2n1 + Cc1[nH]c2ccc(F)cc2c1-c1nc2c3cccnc3c3ncccc3c2[nH]1 has viability, T/C strictly beneath 0.4%.
Result: criterion not met

Query: Problem: For the compound C#Cc1c(F)ccc2cc(O)cc(-c3ncc4c(N5CC6CCC(C5)N6)nc(OCC56CCCN5CC(F)C6)nc4c3F)c12 (stereo not given) + Cc1[nH]c2ccc(F)cc2c1-c1nc2c3cccnc3c3ncccc3c2[nH]1 , is viability, T/C under 0.4%?
Result: criterion met

----------
Tested on: 885512-296-R-J2-PDC complex spheroid viability
Test: Anticancer human tumor 885512-296-R-J2-PDC cell line growth inhibition [GQUAD];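 note: spheroids exposed to the compounds for one week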;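 for viability, T/C: percent of tumor spheroid viability relative to DMSO vehicle control wells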
Details: second compound 0.1 µM; first compound 0.316 µM; stronger effect = lower value
Simple rule here: viability, T/C less than 3% is met, otherwise not met.

Completed entries (count: 3):
| COMPOUND | CLASS |
| --- | --- |
| Cn1ncnc1[C@H]1c2n[nH]c(=O)c3cc(F)cc(c23)N[C@@H]1c1ccc(F)cc1 + Cc1[nH]c2ccc(F)cc2c1-c1nc2c3cccnc3c3ncccc3c2[nH]1 | not met |
| COc1ncnc(C2CC2)c1-c1ncc2cnn(Cc3ccc(-c4nc(C(F)(F)F)cn4C(C)C)cc3)c2n1 + Cc1cnc(CNC(=O)c2c(=O)c3ccc(N4CCCN(C)CC4)nc3n3c2sc2ccccc23)cn1 | not met |
| O=c1[nH]cc(F)c(=O)[nH]1 + CN(C)c1ccc(Nc2c3ccc(NC(=O)CCN4CCCC4)cc3nc3cc(NC(=O)CCN4CCCC4)ccc23)cc1 | not met |

Turning now to a further record.
Query: # check: viability, T/C < 3% for CC1COCCN1c1cc(C2(O)CC3CCC(C2)O3)c2cnn(-c3ccn[nH]3)c2n1 (stereo unspecified) + CN(C)c1ccc(Nc2c3ccc(NC(=O)CCN4CCCC4)cc3nc3cc(NC(=O)CCN4CCCC4)ccc23)cc1
Result: not met

----------
Test system: 885512-296-R-J2-PDC complex spheroid viability
Assay: Anticancer human tumor 885512-296-R-J2-PDC cell line growth inhibition [GQUAD];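 note: spheroids exposed to the compounds for one week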;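 for viability, T/C: percent of tumor spheroid viability relative to DMSO vehicle control wells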
Settings: second compound 0.316 µM; first compound 0.1 µM; stronger effect = lower value
Parameter viability, T/C: see the listing below.
Note: unit % is implicit; provide only the numeric part.

| MOLECULE | viability, T/C / % |
| --- | --- |
| C=CCn1c(=O)c2cnc(Nc3ccc(N4CCN(C)CC4)cc3)nc2n1-c1cccc(C(C)(C)O)n1 + CN(C)c1ccc(Nc2c3ccc(NC(=O)CCN4CCCC4)cc3nc3cc(NC(=O)CCN4CCCC4)ccc23)cc1 | 93.5 |
| COc1ncnc(C2CC2)c1-c1ncc2cnn(Cc3ccc(-c4nc(C(F)(F)F)cn4C(C)C)cc3)c2n1 + Cc1cnc(CNC(=O)c2c(=O)c3ccc(N4CCCN(C)CC4)nc3n3c2sc2ccccc23)cn1 | 24.6 |
| Cc1cccc(N(C)C(=O)C2C(O)CCN2c2nc(C)cc(C(F)(F)F)c2C#N)c1 (stereo not given) + Cc1cnc(CNC(=O)c2c(=O)c3ccc(N4CCCN(C)CC4)nc3n3c2sc2ccccc23)cn1 | 36.2 |
| COc1cccc2c1C(=O)c1c(O)c3c(c(O)c1C2=O)CC(O)(C(=O)CO)CC3OC1CC(N)C(O)C(C)O1 (stereo not given) + Cc1[nH]c2ccc(F)cc2c1-c1nc2c3cccnc3c3ncccc3c2[nH]1 | 39.4 |

# evaluate next
Query: Recorded viability, T/C for COc1ncnc(C2CC2)c1-c1ncc2cnn(Cc3ccc(-c4nc(C(F)(F)F)cn4C(C)C)cc3)c2n1 + Cc1[nH]c2ccc(F)cc2c1-c1nc2c3cccnc3c3ncccc3c2[nH]1 , please?
Result: 78.3

----------
System: 885512-296-R-J2-PDC complex spheroid viability
Assay: Anticancer human tumor 885512-296-R-J2-PDC cell line growth inhibition [GQUAD];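 note: spheroids exposed to the compounds for one week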;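 for viability, T/C: percent of tumor spheroid viability relative to DMSO vehicle control wells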
Conditions: second compound 0.0316 µM; first compound 3.16 µM; stronger effect = lower value
ENDPOINT: viability, T/C (%)
A number alone suffices; assume %.

Use these answered entries as a reference point.
| COMPOUND | EXPERIMENTAL SYSTEM | NUMERIC RESULT |
| --- | --- | --- |
| COc1ncnc(C2CC2)c1-c1ncc2cnn(Cc3ccc(-c4nc(C(F)(F)F)cn4C(C)C)cc3)c2n1 + Cc1[nH]c2ccc(F)cc2c1-c1nc2c3cccnc3c3ncccc3c2[nH]1 | 885512-296-R-J2-PDC complex spheroid viability | 25.1 |
| C=CC(=O)N1CCN(c2nc(=O)n(-c3c(C)ccnc3C(C)C)c3nc(-c4c(O)cccc4F)c(F)cc23)C(C)C1 (stereo not drawn) + CN(C)c1ccc(Nc2c3ccc(NC(=O)CCN4CCCC4)cc3nc3cc(NC(=O)CCN4CCCC4)ccc23)cc1 | 885512-296-R-J2-PDC complex spheroid viability | 102 |

Query: Can you share its viability, T/C? I mean this compound: COc1ccc([C@@H](O)c2cc(-c3ncnc4cc(N5CCOCC5)ccc34)c(F)cc2Cl)nn1 + Cc1[nH]c2ccc(F)cc2c1-c1nc2c3cccnc3c3ncccc3c2[nH]1
Result: 94.2

Values from PubChem BioAssay AID2060490
